Where these numbers come from: patent US20260070917A1

# system-tested: CDK9 (Homo sapiens)
# Construct: host or cells: HEK293-CDK9-Hibit
# Sequence (P50750 whole entry): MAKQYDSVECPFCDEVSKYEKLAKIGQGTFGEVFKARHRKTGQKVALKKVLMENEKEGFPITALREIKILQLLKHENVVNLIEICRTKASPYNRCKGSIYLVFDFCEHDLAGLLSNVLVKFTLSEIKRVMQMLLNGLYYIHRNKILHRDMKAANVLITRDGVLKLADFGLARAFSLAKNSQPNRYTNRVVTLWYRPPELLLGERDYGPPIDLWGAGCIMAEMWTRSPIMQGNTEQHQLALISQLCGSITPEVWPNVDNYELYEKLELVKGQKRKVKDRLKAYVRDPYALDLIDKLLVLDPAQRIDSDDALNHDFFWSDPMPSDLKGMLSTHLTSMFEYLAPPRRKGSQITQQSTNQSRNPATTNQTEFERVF
# method-notes: HiBit Assay Protocol for CDK9 (HIBIT protein quantification, degradation)
# Assay type: cell-based
# particulars: 6 h, HEK293-CDK9-Hibit cells, compound treatment for 6 hours; read-out: CDK9 HIBIT Protein Quantification Maximum
reported-endpoint: Dmax (%)
All answers are understood in %, so give the number only.

Prompt: Query: Dmax; subject: CC1CCCC1N1C(=O)C2(CC2)c2cnc(NC3CCN(S(=O)(=O)N4CC5(CN(C(=O)CCc6ccc7c(c6)n(C)c(=O)n7C6CCC(=O)NC6=O)C5)C4)CC3)nc21 (stereo not drawn)
Completion: 9

Prompt: May I ask what Dmax has been recorded for CC(c1cccc(S(=O)(=O)N2CC[C@H](Nc3ncc4c(n3)N([C@@H]3CCC[C@@H](O)C3)C(=O)C43CC3)[C@H](F)C2)c1)N1CCC(c2ccc3c(N4CCC(=O)NC4=O)nn(C)c3c2)CC1 (stereo partly drawn) ?
Completion: 24

Prompt: What value of Dmax has been reported for the following molecule? CC1CCCC1N1C(=O)C2(CC2)c2cnc(NC3CCN(S(=O)(=O)N4CC5C4CCN5C(=O)CCCCc4ccc5c(c4)n(C)c(=O)n5C4CCC(=O)NC4=O)CC3)nc21 (stereo not drawn)
Completion: 14
